These measurements were taken from PubChem BioAssay AID1159580.

Assay: chemical genetic growth profiling, strain panel (AID 1159580);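 also: tested at 20 µM; growth read once vehicle control cultures reached saturation at 30 °C; 1 = growth at the plate median or of vehicle wells; lower values mean less growth of the strain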
Settings: S. cerevisiae deletion strains, growth OD, locus YAL026C, strain drs2, hits give low values
Among all 5,500 compounds or so, about 2,000 (36%) were called active. Roughly 18% stayed inconclusive and do not appear here. The list shows a part of the results.
Answer each item with its documented normalized growth.

Req: Would you kindly share the measured normalized growth for CC(=O)NCCCS(=O)(=O)O ?
Resp: 1.02 (inactive)

Req: Would you kindly share the measured normalized growth for O=C1C=CC2=C3c4cc(O)c(O)cc4C[C@@]3(O)COC2=C1 ?
Resp: 0.973 (inactive)

Req: Would you kindly share the measured normalized growth for CC/C(=C(\c1ccccc1)c1ccc(OCCN(C)C)cc1)c1ccccc1 ?
Resp: 0.0635 (active)

Req: Would you kindly share the measured normalized growth for NCC(O)c1ccc(O)cc1 (stereo not given) ?
Resp: 1.01 (inactive)

Req: Would you kindly share the measured normalized growth for O=C1O[C@H](C(O)CO)C(O)=C1O (stereo not given in full) ?
Resp: 0.974 (inactive)

Req: Would you kindly share the measured normalized growth for NCCCC[C@H](N[C@@H](CCc1ccccc1)C(=O)O)C(=O)N1CCC[C@H]1C(=O)O ?
Resp: 1.02 (inactive)

Req: Would you kindly share the measured normalized growth for NC[C@H](O)c1ccc(O)c(O)c1 ?
Resp: 0.99 (inactive)

Req: Would you kindly share the measured normalized growth for CN(C)CCOC(C)(c1ccccc1)c1ccccn1 (stereo not given) ?
Resp: 1 (inactive)

Req: Would you kindly share the measured normalized growth for CCN(CC)CCOc1ccc(/C(=C(\Cl)c2ccccc2)c2ccccc2)cc1 ?
Resp: 0.0617 (active)

Req: Would you kindly share the measured normalized growth for COc1cc(C(=O)NCc2ccc(OCCN(C)C)cc2)cc(OC)c1OC ?
Resp: 0.998 (inactive)

* * *

Assay: chemical genetic growth profiling, strain panel (AID 1159580);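 also: tested at 20 µM; growth read once vehicle control cultures reached saturation at 30 °C; 1 = growth at the plate median or of vehicle wells; lower values mean less growth of the strain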
Conditions: S. cerevisiae deletion strains, growth OD, locus YER155C, strain BEM2
The campaign covered roughly 5,500 compounds. About 2,000 (36%) were called active. Roughly 18% stayed inconclusive and do not appear here. Cut-off read from the data, not from the text of the source: active = normalized growth mostly below about 0.91 (no sharp cut-off); inconclusive = no clear call, values can overlap the other calls; inactive = mostly above about 0.92. The list shows a part of the results.
The categories you may choose from are TRUE (active), FALSE (inactive)

Req: GET /call?item= CN(C)CCOC(C)(c1ccccc1)c1ccccn1 (configuration not stated) returns the recorded outcome of this test.
Resp: FALSE

Req: GET /call?item= NC[C@H](O)c1ccc(O)c(O)c1 returns the recorded outcome of this test.
Resp: FALSE

Req: GET /call?item= O=C(O)/C=C/C=C/c1ccccc1 returns the recorded outcome of this test.
Resp: TRUE

Req: GET /call?item= COc1cc(C(=O)NCc2ccc(OCCN(C)C)cc2)cc(OC)c1OC returns the recorded outcome of this test.
Resp: FALSE

Req: GET /call?item= CO[C@H]1/C=C/O[C@@]2(C)Oc3c(C)c(O)c4c(O)c(c(/C=N/N5CCN(C)CC5)c(O)c4c3C2=O)NC(=O)/C(C)=C\C=C\C(C)[C@H](O)[C@@H](C)[C@@H](O)[C@@H](C)[C@@H](OC(C)=O)[C@@H]1C (some centres not stated) returns the recorded outcome of this test.
Resp: FALSE

Req: GET /call?item= CNC[C@@H](O)c1ccc(O)c(O)c1 returns the recorded outcome of this test.
Resp: FALSE

Req: GET /call?item= O=C(O)c1ccccc1Nc1cccc(C(F)(F)F)c1 returns the recorded outcome of this test.
Resp: TRUE

Req: GET /call?item= C[C@H]1[C@H]2CCC3C4CC=C5C[C@@H](N(C)C)CC[C@]5(C)C4CC[C@@]32CN1C (some centres not stated) returns the recorded outcome of this test.
Resp: FALSE

Req: GET /call?item= CCCC1O[C@@H]2CC3C4CCC5=CC(=O)C=CC5(C)C4[C@@H](O)CC3(C)[C@]2(C(=O)CO)O1 (some centres not stated) returns the recorded outcome of this test.
Resp: FALSE

Req: GET /call?item= CCCC(C)C1(CC)C(=O)N=C(S)NC1=O (configuration not stated) returns the recorded outcome of this test.
Resp: FALSE

Req: GET /call?item= CC(C)=CCC[C@](C)(O)C1CC=C(C)CC1 (some centres not stated) returns the recorded outcome of this test.
Resp: FALSE

Req: GET /call?item= O=C(O)CCCCC1CCSS1 (configuration not stated) returns the recorded outcome of this test.
Resp: FALSE

Req: GET /call?item= COC(=O)[C@]1(C)CC[C@]2(C)CC[C@]3(C)C4=CCc5c(cc(O)c(O)c5C)[C@]4(C)CC[C@@]3(C)C2C1 (some centres not stated) returns the recorded outcome of this test.
Resp: FALSE

Req: GET /call?item= CC(=O)O[C@@H]1CC2C(C)(C)C=CC(=O)[C@]2(C)C2CC[C@@]3(C)[C@H](c4ccoc4)OC(=O)C4OC43[C@@]21C (some centres not stated) returns the recorded outcome of this test.
Resp: FALSE

Req: GET /call?item= COC(=O)C[C@H]1C(C)(C)C(=O)[C@@H]2CC3=C4CC(=O)O[C@@H](c5ccoc5)[C@]4(C)CCC3[C@@]1(C)C2=O (some centres not stated) returns the recorded outcome of this test.
Resp: FALSE

Req: GET /call?item= CC(Cc1ccc(O)c(O)c1)C(C)Cc1ccc(O)c(O)c1 (configuration not stated) returns the recorded outcome of this test.
Resp: TRUE

Req: GET /call?item= CC1(C)C(=O)C=CC2(C)C3CCC4(C)C(c5ccoc5)CC5OC54C3C(O)CC12 (configuration not stated) returns the recorded outcome of this test.
Resp: FALSE

Req: GET /call?item= CC(C)N(C(=O)SCC(Cl)=C(Cl)Cl)C(C)C returns the recorded outcome of this test.
Resp: FALSE

Req: GET /call?item= Nc1ncnc2c1ncn2[C@@H]1O[C@H](CO)[C@@H](O)[C@H]1O returns the recorded outcome of this test.
Resp: FALSE

Req: GET /call?item= C[C@H](N)[C@H](O)c1ccc(O)c(O)c1 returns the recorded outcome of this test.
Resp: FALSE

Req: GET /call?item= COC(=O)Oc1ccccc1C(=O)O returns the recorded outcome of this test.
Resp: FALSE

Req: GET /call?item= O=C(OC1Cc2c(O)cc(O)cc2OC1c1cc(O)c(O)c(O)c1-c1c(C2Oc3cc(O)cc(O)c3CC2OC(=O)c2cc(O)c(O)c(O)c2)cc(O)c(O)c1O)c1cc(O)c(O)c(O)c1 (configuration not stated) returns the recorded outcome of this test.
Resp: FALSE

Req: GET /call?item= CC(=O)Nc1ccc(S(=O)(=O)Nc2ccc([N+](=O)[O-])cc2)cc1 returns the recorded outcome of this test.
Resp: FALSE

Req: GET /call?item= C=C(C)[C@H]1CC=C(C(=O)O)CC1 returns the recorded outcome of this test.
Resp: FALSE

Req: GET /call?item= Nc1nc2c(ncn2C2C[C@H](O)[C@@H](CO)O2)c(=O)[nH]1 (some centres not stated) returns the recorded outcome of this test.
Resp: FALSE

Req: GET /call?item= O=c1[nH]c(=O)n(C2C[C@@H](O)[C@@H](CO)O2)cc1F (some centres not stated) returns the recorded outcome of this test.
Resp: FALSE

Req: GET /call?item= COc1cc(OC)c2c(=O)c(-c3ccccc3)c(C)oc2c1OC returns the recorded outcome of this test.
Resp: FALSE

Req: GET /call?item= CC1(C)C(O)CC(O)C2(C)C1CC(O)C1(C)C2CCC2(C)C(c3ccoc3)CC3OC321 (configuration not stated) returns the recorded outcome of this test.
Resp: FALSE

Req: GET /call?item= COc1ccccc1OCCNCC(O)COc1cccc2[nH]c3ccccc3c12 (configuration not stated) returns the recorded outcome of this test.
Resp: FALSE

Req: GET /call?item= CCCCC(CC)CN1CN(CC(CC)CCCC)CC(C)(N)C1 (configuration not stated) returns the recorded outcome of this test.
Resp: TRUE

Req: GET /call?item= N[C@@H](Cc1ccc(O)c(O)c1)C(=O)O returns the recorded outcome of this test.
Resp: FALSE

Req: GET /call?item= CN[C@H](CC(=O)O)C(=O)O returns the recorded outcome of this test.
Resp: FALSE

Req: GET /call?item= NCC(O)c1ccc(O)cc1 (configuration not stated) returns the recorded outcome of this test.
Resp: FALSE

Req: GET /call?item= COc1cc2c(c(OC)c1OC)-c1ccc(OC)c(=O)cc1[C@@H](NC(C)=O)CC2 returns the recorded outcome of this test.
Resp: FALSE

Req: GET /call?item= CC/C(=C(\c1ccccc1)c1ccc(OCCN(C)C)cc1)c1ccccc1 returns the recorded outcome of this test.
Resp: TRUE

Req: GET /call?item= O=C(O[C@@H]1Cc2c(O)cc(O)cc2O[C@@H]1c1cc(O)c(O)c(O)c1-c1c([C@H]2Oc3cc(O)cc(O)c3C[C@H]2O)cc(O)c(O)c1O)c1cc(O)c(O)c(O)c1 returns the recorded outcome of this test.
Resp: TRUE

Req: GET /call?item= O=C(O)c1cccnc1Nc1cccc(C(F)(F)F)c1 returns the recorded outcome of this test.
Resp: FALSE

Req: GET /call?item= COC(C)(C)CCC[C@H](C)C/C=C/C(C)=C/C(=O)OC(C)C returns the recorded outcome of this test.
Resp: FALSE

Req: GET /call?item= CCCCC1(COC(=O)CCC(=O)O)C(=O)N(c2ccccc2)N(c2ccccc2)C1=O returns the recorded outcome of this test.
Resp: FALSE

Req: GET /call?item= COc1ccc(C(Cl)=C(c2ccc(OC)cc2)c2ccc(OC)cc2)cc1 returns the recorded outcome of this test.
Resp: FALSE

Req: GET /call?item= C=C[C@](C)(O)CCC=C(C)C returns the recorded outcome of this test.
Resp: FALSE

Req: GET /call?item= CN1C(CC(=O)c2ccccc2)CCCC1CC(O)c1ccccc1 (configuration not stated) returns the recorded outcome of this test.
Resp: FALSE
